Just for reference, ChEMBL document CHEMBL4689842 is where these values come from.

System: U2OS
Experiment Summary: Incucyte cell viability with U2OS; further: filed as whole numbers so only -1 and 0 and 1 occur
Type: toxicity, cell-based
Condition Context: human, 24 h, 10 µM, compound concentration 10 uM, replicate number 1, timepoint 24 hours
Experimental Endpoint: Growth Rate
API doc: respond with a numeric literal and nothing else, no unit.

Q. Which value of Growth Rate has been reported for `Cc1cc(C)c(S(=O)(=O)N(Cc2ccc(-c3cccc(S(C)(=O)=O)c3)cc2)Cc2ccc(C(F)(F)F)o2)c(C)c1` in the records?
A. 1

Q. Next entry: `O=C1NC(=O)C(c2cnc3ccccn23)=C1c1cn2c3c(cc(F)cc13)CN(C(=O)N1CCCCC1)CC2`
A. 0

Q. Now give it for `Cn1nc(C(=O)NCc2ccc(C(=O)O)cc2)cc1-c1ccc2[nH]ccc2c1` too.
A. 1

Q. Now this one: `COc1cc2c(CCNC(C)=O)c[nH]c2cc1Cl`
A. 1
